system: CEM cells HIV-1 protection, formazan growth assay; experiment: NCI AIDS Antiviral Assay; conditions: measured here: growth of uninfected CEM cells

{"MOLECULE": "C1CN(SSN2CCSCC2)CCS1", "IC50": "> 5.37 µM"}
{"MOLECULE": "CC(C)(C)N/N=C(/Cc1nc2c3c(ccc2[nH]c1=O)C(=O)c1ccccc1C3=O)C(=O)NC1=C(Cl)C(=O)c2ccccc2C1=O", "IC50": "> 11.5 µM"}
{"MOLECULE": "CN(C)c1ccc(C(=O)CCCN2CCC(O)(c3ccc(Cl)cc3)CC2)cc1", "IC50": "> 25.1 µM"}
{"MOLECULE": "CN(C)c1cc(CN(CCSS(=O)c2ccccc2[N+](=O)[O-])S(=O)c2ccccc2[N+](=O)[O-])nc(CN(CCSS(=O)c2ccccc2[N+](=O)[O-])S(=O)c2ccccc2[N+](=O)[O-])c1 (centres undefined)", "IC50": "> 100 µM"}
{"MOLECULE": "CCCCN(CC)C(=O)C(=O)Cc1nc2ccc(C(=O)c3ccccc3)cc2[nH]c1=O", "IC50": "> 17.4 µM"}
{"MOLECULE": "CC1=NOC(=O)/C1=C/c1cccc2ccccc12", "IC50": "> 1050 µM"}
{"MOLECULE": "N#CCCCCn1cnc2c(N)ncnc21", "IC50": "> 200 µM"}
{"MOLECULE": "CC1(C)O[C@@H]([C@@H](O)[C@H](O)C2SCCCS2)[C@@H](CO)O1", "IC50": "> 200 µM"}
{"MOLECULE": "O=C(/C=C\\c1cccc2ccccc12)c1cccc2ccccc12", "IC50": "> 8.91 µM"}
{"MOLECULE": "COc1ccc(C2C(Cl)C(=O)N2NC(=O)c2ccc(N)cc2)cc1 (centres undefined)", "IC50": "> 200 µM"}
{"MOLECULE": "CCOC(=O)C1=C(C)NC(=S)NC1c1ccccc1 (centres undefined)", "IC50": "> 93.3 µM"}
{"MOLECULE": "CCC(C)NC1=NCC(C)S1 (centres undefined)", "IC50": "> 200 µM"}
{"MOLECULE": "CCS(CC)(CC)CC1CCCC2=CCC(P(=O)(c3ccccc3)c3ccccc3)CC21 (centres undefined)", "IC50": "> 15.5 µM"}
{"MOLECULE": "O=C(CCc1ccc(O)cc1)NCCCNC(=O)CCc1ccc(O)cc1", "IC50": "> 200 µM"}
{"MOLECULE": "C#CN1C(=O)c2c(c(-c3ccccc3)c(-c3ccc(Oc4ccc(-c5c(-c6ccccc6)c6c(c(-c7ccccc7)c5-c5ccccc5)C(=O)N(C#C)C6=O)cc4)cc3)c(-c3ccccc3)c2-c2ccccc2)C1=O", "IC50": "> 10.2 µM"}
{"MOLECULE": "O=C(Cc1ccccc1C(=O)O)c1ccccc1", "IC50": "> 200 µM"}
{"MOLECULE": "O=C1C(=c2ccc(=C3C(=O)c4ccc([N+](=O)[O-])cc4[N+]3=O)cc2)N([O-])c2cc([N+](=O)[O-])ccc21", "IC50": "> 11.5 µM"}
{"MOLECULE": "COC1(OC)C=CC2C1C1C=CC2C1(OC)OC (centres undefined)", "IC50": "> 200 µM"}
{"MOLECULE": "O=C(/C=C(\\O)C(=O)O)/C=C(\\O)c1ccc(Cl)cc1", "IC50": "> 69.2 µM"}

* * *

Tested on: CEM cells HIV-1 protection, formazan growth assay
Test: NCI AIDS Antiviral Assay;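 active = compounds giving half or more protection of infected cells from virus-caused growth loss, again on retest; inactive = the rest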
Procedure: The ability of compounds to protect human CEM cells from HIV-1 infection is measured as a screen for new compounds capable of inhibiting the HIV virus. Five concentrations of drug were tested on uninfected and infected cells and cell growth was measured using a soluble formazan assay. […] Compounds that provided at least 50% protection were retested. Compounds that provided at least 50% protection on retest were listed as moderately active. […]
Where a SMILES comes first, the peptide text is derived from it. The star is where a group is joined. Boc = CC(C)(C)OC(=O)*
Outcomes: active, inactive

{"COMPOUND": "Cc1ccc(C)c(NC(=O)CC2SC(=Nc3ccccc3Cl)NC2=O)c1 (stereo not drawn)", "CLASSIFICATION": "inactive"}
{"COMPOUND": "CC(=O)NC1C(OCc2ccccc2)OC(COC(=O)CCCCCCCCCCNc2ccc([N+](=O)[O-])c3[nH]c4ccccc4c(=O)c23)C(O)C1OC(C)C(=O)NC(C)C(=O)NC(CCC(N)=O)C(=O)OCc1ccccc1 (stereo not drawn)", "CLASSIFICATION": "inactive"}
{"COMPOUND": "CCCCCCCCCCCCCCCCCCNc1nc(=O)n(C2CC(O)C(COP(=O)(O)OCC3OC(n4cc(C)c(=O)[nH]c4=O)CC3N=[N+]=[N-])O2)cc1F (stereo not drawn)", "CLASSIFICATION": "active"}
{"COMPOUND": "O=C(CCl)N1CCC(CC2(c3cc4ccccc4[nH]3)OCCO2)CC1", "CLASSIFICATION": "inactive"}
{"COMPOUND": "Cc1ccc2c(c1)C(=O)CC=C(C(=O)O)N2", "CLASSIFICATION": "inactive"}
{"COMPOUND": "O=C(c1ccccc1)c1cccc(C(=O)c2ccccc2)n1", "CLASSIFICATION": "inactive"}
{"COMPOUND": "CN1C(=O)C2CCC(=O)N2c2cccnc21 (stereo not drawn)", "CLASSIFICATION": "inactive"}
{"COMPOUND": "CCCCC1C=Cn2c(=O)oc3c(OC(C)C)c(C)c(O)c1c32 (stereo not drawn)", "CLASSIFICATION": "inactive"}
{"COMPOUND": "COC(=O)C(Cc1c[nH]c2ccccc12)NC(=O)C(Cc1c[nH]c2ccccc12)NC(=O)C(Cc1c[nH]c2ccccc12)NC(=O)C(Cc1c[nH]c2ccccc12)NC(=O)C(Cc1c[nH]c2ccccc12)NC(=O)C(Cc1c[nH]c2ccccc12)NC(=O)OC(C)(C)C (stereo not drawn) (Boc-WWWWWW-OMe; configuration not given here)", "CLASSIFICATION": "inactive"}
{"COMPOUND": "Cc1ccc(NC(=O)CC/C(CC(=O)C(C)(C)C)=N/Nc2nnc(C)n2N)cc1C", "CLASSIFICATION": "inactive"}
{"COMPOUND": "O=[N+]([O-])c1cccc(/C=N/Nc2ccc(S(=O)(=O)O)cc2)c1", "CLASSIFICATION": "inactive"}
{"COMPOUND": "NC(=O)C(=O)N/N=C/c1ccc([N+](=O)[O-])o1", "CLASSIFICATION": "inactive"}
{"COMPOUND": "CCOC(=O)c1nc2cc(C(F)(F)F)ccc2nc1Oc1ccc(OC)cc1", "CLASSIFICATION": "inactive"}
{"COMPOUND": "O=C1CCC(N2C(=O)C3CCCCC3C2=O)C(=O)N1 (stereo not drawn)", "CLASSIFICATION": "inactive"}
{"COMPOUND": "Cn1c(=O)[nH]c(N2CCCC2)c(C#N)c1=S", "CLASSIFICATION": "inactive"}
{"COMPOUND": "CC(C)N(C(=O)C12C3C4C1C1C4(C#N)C3C12C#N)C(C)C (stereo not drawn)", "CLASSIFICATION": "inactive"}
{"COMPOUND": "Cc1ccc(/C=C2/N=C(N/N=C\\c3ccccc3)NC2=O)cc1", "CLASSIFICATION": "inactive"}
{"COMPOUND": "CC1CCN(CCC(=O)CC(c2ccccc2)c2c(O)c3ccccc3oc2=O)CC1 (stereo not drawn)", "CLASSIFICATION": "inactive"}
{"COMPOUND": "O=C1C=CC(=O)c2nc(-c3ccccc3)c(-c3ccccc3)nc21", "CLASSIFICATION": "inactive"}
{"COMPOUND": "CN1CCN(/C(N)=C(\\C#N)C(=O)Nc2ccc(Cl)cc2)CC1", "CLASSIFICATION": "inactive"}
{"COMPOUND": "CC(=O)C(=Cc1ccc(O)cc1)C(C)=O", "CLASSIFICATION": "inactive"}
{"COMPOUND": "O=c1[nH]n(Cc2ccccc2CCl)c2ccc([N+](=O)[O-])cc12", "CLASSIFICATION": "inactive"}
{"COMPOUND": "Cc1cc2c(c(C#N)c1C)NC(=O)CN=C2c1ccccc1F", "CLASSIFICATION": "active"}
{"COMPOUND": "Nc1[nH]c(=S)c2c(N)n[nH]c2c1C(=O)Nc1ccccc1", "CLASSIFICATION": "inactive"}
{"COMPOUND": "COC(=O)c1cn2ccc3ccccc3c2c1C(=O)OC", "CLASSIFICATION": "inactive"}
{"COMPOUND": "N#CSCc1ccc(Cl)cc1", "CLASSIFICATION": "inactive"}
{"COMPOUND": "O=[N+]([O-])c1cccc(C2=NOC3C4CCC(C4)C23)c1 (stereo not drawn)", "CLASSIFICATION": "inactive"}
{"COMPOUND": "CCN(CC)CCNC(=O)c1ccccc1Nc1c(Cl)cccc1Cl", "CLASSIFICATION": "inactive"}
{"COMPOUND": "NC1=NNC2(C(=O)N1)c1ccccc1-c1ccccc12", "CLASSIFICATION": "inactive"}
{"COMPOUND": "CN1CCCOC(c2ccc([N+](=O)[O-])cc2)O1 (stereo not drawn)", "CLASSIFICATION": "inactive"}
{"COMPOUND": "CC1(C)C2CCC3CC(CCC#N)CCC3C21C#N (stereo not drawn)", "CLASSIFICATION": "inactive"}
{"COMPOUND": "CC1=C(C(=O)Nc2ccc([N+](=O)[O-])cc2)C(c2ccc(N(C)C)cc2)C(C(=O)Nc2ccc([N+](=O)[O-])cc2)=C(C)N1", "CLASSIFICATION": "inactive"}
{"COMPOUND": "COC(=O)C1=CC(=O)N2CCN=C2S1", "CLASSIFICATION": "inactive"}

These measurements were taken from PubChem BioAssay AID179.
